Give measured inhibition for each item. Keep answers brief.
- experimental.system: Serine/threonine-protein kinase 3 (Homo sapiens) (UniProt Q13188);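 further: each value is the mean inhibition of MST2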
- Sequence (Q13188 whole entry): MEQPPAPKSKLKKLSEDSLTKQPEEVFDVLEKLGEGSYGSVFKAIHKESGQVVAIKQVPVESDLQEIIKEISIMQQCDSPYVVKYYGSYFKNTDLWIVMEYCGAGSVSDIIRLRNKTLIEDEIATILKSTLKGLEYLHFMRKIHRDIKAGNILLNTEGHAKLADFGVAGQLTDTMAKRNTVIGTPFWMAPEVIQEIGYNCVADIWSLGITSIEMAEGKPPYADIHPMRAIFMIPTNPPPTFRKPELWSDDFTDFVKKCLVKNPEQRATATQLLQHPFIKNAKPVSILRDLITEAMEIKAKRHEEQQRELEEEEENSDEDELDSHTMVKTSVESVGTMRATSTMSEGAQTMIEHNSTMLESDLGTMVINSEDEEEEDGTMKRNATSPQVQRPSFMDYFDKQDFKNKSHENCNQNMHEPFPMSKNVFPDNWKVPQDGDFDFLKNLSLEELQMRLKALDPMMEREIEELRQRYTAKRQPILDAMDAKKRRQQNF
- experimental.parameters: at 1 µM
Give bare numbers, in %.

Hi, could you look up inhibition for each item in my list?
1. COc1ccc(-c2nn3ncccc3c2-c2ccnc(Nc3cccc(C(F)(F)F)c3)n2)cc1
2. CS(=O)(=O)CCNCc1nc(-c2ccc3ncnc(Nc4ccc(OCc5cccc(C(F)(F)F)c5)cc4)c3c2)cs1
3. CCn1c(-c2nonc2N)nc2c(C#CC(C)(C)O)nc(OCCNC)cc21
4. Cc1ccc2c(-c3ccnc(Nc4ccc5c(c4)OCCO5)n3)c(-c3ccc(C(F)(F)F)cc3)nn2n1
5. c1ccc(Cc2nc3ccc(Nc4ncnc5ccccc45)cc3[nH]2)cc1

Response line:
[5.12, 6.28, 7.27, 2.76, 8.29]

Quick request: inhibition for each listed item, please.
1. CN(C)C(=O)O[C@H]1CN[C@H](C#Cc2cc3ncnc(Nc4ccc(OCc5cccc(F)c5)c(Cl)c4)c3s2)C1
2. ON=C1CCc2cc(-c3nc(C4CCNCC4)[nH]c3-c3ccncc3)ccc21
3. Cc1ccc(NC(=O)CC2CC2)cc1-c1ccc(C(=O)NCC2CC2)cc1
4. NS(=O)(=O)c1ccc(Nc2cc(-c3cccc(O)c3)n[nH]2)cc1

Response line:
1. 3
2. 2.8
3. 5.72
4. 13.4

----------
- experimental.system: Sphingosine kinase 1 (Homo sapiens);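 further: mean SPHK1 inhibition value reported from the GSK PKIS kinase panel screen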
- experimental.parameters: at 1 µM
quantity: inhibition (%)
Give bare numbers, in %.

Worked cases, inhibition given:
| compound.structure.string | quantity.unit | measurement |
| --- | --- | --- |
| CC(C)c1ccc(Nc2nccc(-c3cnn4ncccc34)n2)cc1 | % | 7.28 |
| CCOc1nccc2c1nc(-c1nonc1N)n2CC | % | 7.65 |
| COc1cccc(-n2nc(C)c3c(N/N=C(\C)c4ccncc4)ncnc32)c1 | % | 2.22 |
| CCn1c(-c2nonc2N)nc2c(C#CC(C)(C)O)nc(OCCNC)cc21 | % | 0.34 |

Now look at this one.
Prompt line: What measured inhibition goes with O=S(=O)(CCOCc1ccc(-c2ccc3ncnc(Nc4ccc(OCc5cccc(F)c5)c(Cl)c4)c3c2)o1)c1ccccc1 ?
Response line: 1.2

----------
- experimental.system: Epidermal growth factor receptor (Homo sapiens);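 further: values are mean inhibition figures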
- experimental.parameters: at 1 µM
quantity: inhibition (%)
Give bare numbers, in %.

| compound.structure.string | inhibition / % |
| --- | --- |
| CC(C)c1ccc(Nc2nccc(-c3cnn4ncccc34)n2)cc1 | 6.88 |

Hello, I would appreciate it if you could give inhibition for each entry below.
1. O=C1Nc2ccccc2/C1=C/Nc1ccc2[nH]c(=O)[nH]c2c1
2. CCS(=O)(=O)c1ccc(OC)c(Nc2ncc(-c3cccc(OC)c3)o2)c1
3. CCOc1nccc2c1nc(-c1nonc1N)n2CC
4. NS(=O)(=O)c1ccc(NC=C2C(=O)Nc3ccc4ncsc4c32)cc1

Response line:
1: 7.94; 2: 8.46; 3: 1.18; 4: 0.9

Field: inhibition. Fill in for each record below.
1. ON=C1CCc2cc(-c3nc(C4CCNCC4)[nH]c3-c3ccncc3)ccc21
2. CS(=O)(=O)CCNCc1nc(-c2ccc3ncnc(Nc4ccc(OCc5cccc(C(F)(F)F)c5)cc4)c3c2)cs1
3. Cc1ccc(C(=O)NC2CC2)cc1-c1ccc2[nH]ncc2c1
4. CS(=O)(=O)Nc1cccc(-c2ccc3c(NC(=O)C4CC4)n[nH]c3c2)c1
5. CN(c1ccc(NC(=O)Nc2ccc(OC(F)(F)F)cc2)cc1)c1ccnc(Nc2cccc(S(N)(=O)=O)c2)n1

Response line:
[2.59, 64, 1.98, 0.31, 3.21]
